Biological target: MAO-B (Rattus norvegicus, UniProt P19643)
Sequence (P19643 1-520): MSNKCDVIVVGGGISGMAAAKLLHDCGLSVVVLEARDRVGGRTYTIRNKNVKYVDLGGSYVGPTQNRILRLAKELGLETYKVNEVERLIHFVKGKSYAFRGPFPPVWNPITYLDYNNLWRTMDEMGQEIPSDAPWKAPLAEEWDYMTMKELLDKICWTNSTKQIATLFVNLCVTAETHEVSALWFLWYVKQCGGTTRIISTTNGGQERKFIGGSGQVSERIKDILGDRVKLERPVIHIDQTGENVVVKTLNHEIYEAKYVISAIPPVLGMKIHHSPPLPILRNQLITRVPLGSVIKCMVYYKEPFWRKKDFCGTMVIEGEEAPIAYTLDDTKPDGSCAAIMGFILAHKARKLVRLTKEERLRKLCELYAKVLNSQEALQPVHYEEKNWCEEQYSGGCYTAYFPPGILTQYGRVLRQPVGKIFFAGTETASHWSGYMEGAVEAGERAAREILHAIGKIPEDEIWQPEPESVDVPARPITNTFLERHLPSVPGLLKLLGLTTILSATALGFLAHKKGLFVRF
measured property: IC50 (nM)

C[C@H](NCc1ccc(OCc2cccc(Cl)c2)cc1)C(N)=O : 30

(a) CN(CC(N)=O)Cc1ccc(OCc2cccc(Cl)c2)cc1
(b) C[C@H](NCc1ccc(OCc2ccccc2F)cc1)C(N)=O
-- ask Endpoint returns whichever of a and b has the numerically higher IC50. // respond with label for picked entry
-- reply b
